# tested on: T1, soluble human FcRn (shFcRn) (human, UniProt P55899 24-297; P61769 21-119, biotinylated with Sulfo-NHS-LC-Biotin in the ELISA; amine-coupled to a CM5 chip in SPR)
# T1 construct: also called biotinylated shFcRn
# T1 sequence (P55899 24-297 limits assumed, chain 1 of 2): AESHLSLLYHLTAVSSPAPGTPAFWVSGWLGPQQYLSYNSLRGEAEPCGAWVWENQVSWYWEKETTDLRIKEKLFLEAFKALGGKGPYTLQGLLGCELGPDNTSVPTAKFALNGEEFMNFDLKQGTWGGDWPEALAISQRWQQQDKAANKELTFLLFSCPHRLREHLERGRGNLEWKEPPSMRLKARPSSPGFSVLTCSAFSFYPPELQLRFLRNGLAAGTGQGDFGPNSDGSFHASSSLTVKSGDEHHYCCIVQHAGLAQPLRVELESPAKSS
# T1 sequence (P61769 21-119 limits assumed, chain 2 of 2): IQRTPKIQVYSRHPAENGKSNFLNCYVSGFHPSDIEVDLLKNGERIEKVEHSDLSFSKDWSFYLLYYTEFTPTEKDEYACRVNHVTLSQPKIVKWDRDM
# experiment description: SPR, pH 7.4
Positions of bridges follow the written chain, without caps; N, C: chain ends. Non-standard residues stand in square brackets, D forms with d. No end group written: not given here. Pen = CC(C)(S)[C@H](N)C(=O)O; Sar = CNCC(=O)O
pKd reference
# pKd is unitless: minus log10 of the molar concentration; print number only

RFXTGHFGGXYPCNGP (Pen3; NMeLeu10; disulfide; C-terminal amide) [Peptide No. 146]    6.55

Looking up QRFXTGHFGXLYPCNGP (Pen4; D-Ile10; disulfide; C-terminal amide) [Peptide No. 43] , I found its pKd recorded as 4.39

Looking up QRFVTGHFGXWYPANGP (D-Pro10; unbridged; C-terminal amide) [Peptide No. 177] , I found its pKd recorded as 4.02

Looking up QRFXTGHFXGLYPCNGP (Pen4; D-Asp9; disulfide; C-terminal amide) [Peptide No. 47] , I found its pKd recorded as 5.31

Looking up QRF[Pen]TGHFG[dR]LYPCNGP-NH2 (disulfide 4-14; N-terminus assumed; SMILES CC(C)C[C@@H]1NC(=O)[C@@H](CCCNC(=N)N)NC(=O)CNC(=O)[C@H](Cc2ccccc2)NC(=O)[C@H](Cc2c[nH]cn2)NC(=O)CNC(=O)[C@H]([C@@H](C)O)NC(=O)[C@@H](NC(=O)[C@H](Cc2ccccc2)NC(=O)[C@H](CCCNC(=N)N)NC(=O)[C@@H](N)CCC(N)=O)C(C)(C)SSC[C@@H](C(=O)N[C@@H](CC(N)=O)C(=O)NCC(=O)N2CCC[C@H]2C(N)=O)NC(=O)[C@@H]2CCCN2C(=O)[C@H](Cc2ccc(O)cc2)NC1=O) [Peptide No. 41] , I found its pKd recorded as 5.06

Looking up RFXTGHFGXXYPC (Pen3; Sar9; NMeLeu10; disulfide; C-terminal amide) [Peptide No. 235] , I found its pKd recorded as 6.77

Looking up RF[Pen]TGHFG[Sar]YPCNGP-NH2 (disulfide 3-12; N-terminus assumed; SMILES C[C@@H](O)[C@@H]1NC(=O)[C@@H](NC(=O)[C@H](Cc2ccccc2)NC(=O)[C@@H](N)CCCNC(=N)N)C(C)(C)SSC[C@@H](C(=O)N[C@@H](CC(N)=O)C(=O)NCC(=O)N2CCC[C@H]2C(N)=O)NC(=O)[C@@H]2CCCN2C(=O)[C@H](Cc2ccc(O)cc2)NC(=O)CN(C)C(=O)CNC(=O)[C@H](Cc2ccccc2)NC(=O)[C@H](Cc2c[nH]cn2)NC(=O)CNC1=O, printed RF-Pen-TGHFG-Sar-YPCNGP (no Leu after Sar)) [Peptide No. 147] , I found its pKd recorded as 6.46
